# TEST: Solubility limit of IAA in water
# Type: physicochemical
# MEASUREMENT_CONDITIONS: apparent, from the IAA concentration in the aqueous extract
ENDPOINT: solubility

The molecule O=C(O)Cc1c[nH]c2ccccc12 [IAA, indole-3-acetic acid] showed solubility equal to ~17 µg/mL
